system: 621-103 (TSC2-rescued); experiment: relative viability vs DMSO; higher = less cytotoxic; details: 0.1 µM; serum: 10% FBS; 72 h;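 note: immortalized renal angiomyolipoma cells stably carrying empty vector or TSC2, dosed in 384-well plates in DMEM, viability normalized to vehicle-treated wells within each plate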
Structures can show the parent of a compound that is named as a salt.
Entries and their measured relative viability follow.
Your answer should be a plain number; it is taken to be in %.

Solved cases (2 shown):
INSERT INTO measurements (compound, observed) VALUES
  ('O=C(c1ccc(F)cc1)C1CCN(CCn2c(=O)[nH]c3ccccc3c2=O)CC1', 106),
  ('CC(C)(C)NC(=O)[C@H]1CC[C@H]2[C@@H]3CC[C@H]4NC(=O)C=C[C@]4(C)[C@H]3CC[C@]12C [Finasteride]', 101);

Exercise: Item `O=C1CCc2cc(OCCCCc3nnnn3C3CCCCC3)ccc2N1` has what recorded relative viability?
Key: 105

Exercise: Now the compound `CN(C)Cc1cccc(N=C(c2ccccc2)c2c(O)[nH]c3cc(C(=O)N(C)C)ccc23)c1`
Key: 99.5

Exercise: Now the compound `Clc1ccc(C2(c3ccc(-c4cn[nH]c4)cc3)CCNCC2)cc1`
Key: 94.3

Exercise: Now the compound CCN[C@H]1C[C@H](C)S(=O)(=O)c2sc(S(N)(=O)=O)cc21 [Dorzolamide HCl]
Key: 103

Exercise: Now the compound Nc1ncnc2c1c(-c1cccc(OCc3ccccc3)c1)cn2C1CC(CN2CCCC2)C1 (centres undefined)
Key: 96.7

Exercise: Now the compound CN(C)CCOC(c1ccccc1)c1ccccc1 [Diphenhydramine HCl]
Key: 97.3

Exercise: Now the compound NC(CO)C(=O)NNCc1ccc(O)c(O)c1O (centres undefined) [Benserazide HCl]
Key: 109
